Parameter collision cross section: see the listing below.
assay: collision cross section (TIMS, N2 drift gas) of the primary ion; higher = larger gas-phase ion size; conditions: ionization mode: ESI-; ion species: [M-H]-
Respond with the bare value in Å².

Below: 3 molecules and their reported collision cross section.
CN(C(=O)CO)c1c(I)c(C(=O)NCC(O)CO)c(I)c(C(=O)NCC(O)CO)c1I (centres undefined) [Iomeprol]; 210.1
O=C(O)C(F)(F)C(F)(F)C(F)(F)C(F)(F)C(F)(F)C(F)(F)C(=O)O [Perfluorosuberic acid]; 143.37
N#Cc1c(O)c(Cl)c(Cl)c(C#N)c1Cl [Chlorothalonil-4-hydroxy]; 135.03

As a next step, examine the molecule that follows.
Req: Recall and state the measured collision cross section for O=C(NC(=O)c1c(F)cccc1F)Nc1ccc(Cl)cc1 [Diflubenzuron] .
Resp: 167.93

###

experiment: reversed-phase LC retention time (C18, 15 min MeOH gradient); higher = more hydrophobic / later elution; settings: ionization mode: ESI+; ion species: [M+H]+
Below, each of the molecules is paired with its reported reversed-phase LC retention time value.
Express it in min; write the number only.

Use these answered entries as a reference point.
CC(C)c1ccc2sc3ccccc3c(=O)c2c1 [2-Isopropylthioxanthone]; 17.1
O=P(OCC(Br)CBr)(OCC(Br)CBr)OCC(Br)CBr (stereo not given) [Tris(2,3-dibromopropyl)phosphate]; 16
O=C(/C=C/C=C/c1ccc2c(c1)OCO2)N1CCCCC1 [Piperine]; 14.6
O=P(OC(CCl)CCl)(OC(CCl)CCl)OC(CCl)CCl [TDCPP]; 15.5

# ---- query molecule ----
Req: Assign reversed-phase LC retention time to the following record: Cc1cccc(Nc2ccccc2C(=O)O)c1C [Mefenamic acid]
Resp: 16.3

###

experiment: reversed-phase LC retention time (C18, 15 min MeOH gradient); higher = more hydrophobic / later elution; conditions: ionization mode: ESI+; ion species: [M+H]+
METRIC: reversed-phase LC retention time (min)
Report the value in min with no unit label.

The examples below pair each entry with its known result.
S=c1nc[nH]c2nc[nH]c12; 2.22
O=C(O)c1ccccc1C(=O)OCc1ccccc1 [Monobenzyl phthalate]; 17.1
CCCCC(CC)CNCC(CC)CCCC (stereo not drawn); 14.8

Req: Return reported reversed-phase LC retention time. Input compound: CCCCCCCC/C=C\CCCCCCCC(N)=O [Oleic acid amide]
Resp: 18.5

Req: Item "C#CCN1C(=O)COc2cc(F)c(N3C(=O)C4=C(CCCC4)C3=O)cc21" : provide reversed-phase LC retention time
Resp: 13.5

Req: Check the records and state reversed-phase LC retention time for C[C@]12CCC(=O)C=C1CC[C@@H]1[C@@H]2[C@@H](O)C[C@@]2(C)[C@H]1CC[C@]2(O)C(=O)CO [Hydrocortisone]
Resp: 12.4

Req: Please report reversed-phase LC retention time for the following compound: "CNC(=O)c1cc(Oc2ccc(NC(=O)Nc3ccc(Cl)c(C(F)(F)F)c3)cc2)ccn1"
Resp: 15.8

Req: For the compound CC1(C)O[C@@H]2C[C@H]3[C@@H]4CCC5=CC(=O)C=C[C@]5(C)[C@H]4[C@@H](O)C[C@]3(C)[C@]2(C(=O)CO)O1 [Desonide] , give its reported reversed-phase LC retention time.
Resp: 13.6

###

assay: collision cross section (TIMS, N2 drift gas) of the primary ion; higher = larger gas-phase ion size; conditions: ionization mode: ESI+; ion species: [M+H]+
Reported collision cross section values for a set of compounds
Your answer should be a plain number; it is taken to be in Å².

Nc1nc(NC2CC2)c2ncn([C@H]3C=C[C@@H](CO)C3)c2n1; 168.31

Let us examine a further case.
Req: Quick one: give measured collision cross section for NC(=O)N1c2ccccc2C=Cc2ccccc21 [Carbamazepine]
Resp: 150.05

###

test: reversed-phase LC retention time (C18, 15 min MeOH gradient); higher = more hydrophobic / later elution; details: ionization mode: ESI-; ion species: [M-H]-
Use 10 min as the dividing line for reversed-phase LC retention time, with the line itself on the Condition met side and lower values as Condition not met.

For orientation, consider the following solved cases.
O=C(NCCc1ncc(C(F)(F)F)cc1Cl)c1ccccc1C(F)(F)F; Condition met
CC1(C)[C@@H](O[C@H]2O[C@H](C(=O)O)[C@@H](O)[C@H](O)[C@H]2O[C@@H]2O[C@H](C(=O)O)[C@@H](O)[C@H](O)[C@H]2O)CC[C@]2(C)[C@H]3C(=O)C=C4[C@@H]5C[C@@](C)(C(=O)O)CC[C@]5(C)CC[C@@]4(C)[C@]3(C)CC[C@@H]12; Condition met
CC(C)(c1ccc(O)cc1)c1ccc(O)cc1; Condition met

Req: Hello, I need to know if Oc1ccc2c(c1)[nH]c1ccccc12 [2-Hydroxycarbazole] has measured reversed-phase LC retention time not below 10 min. Thanks!
Resp: Condition met

Req: Quick check, reversed-phase LC retention time >= 10 min? "OC(Cn1cncn1)(Cn1cncn1)c1ccc(F)cc1F"
Resp: Condition not met

Req: Quick check, reversed-phase LC retention time >= 10 min? "C[C@]12CC[C@@H]3c4ccc(O)cc4CC[C@H]3[C@@H]1CC[C@@H]2O"
Resp: Condition met

Req: Hello, I need to know if "O=C(O)C(F)(F)C(F)(F)C(F)(F)C(F)(F)C(F)(F)C(F)(F)C(F)(F)C(F)(F)C(F)(F)C(F)(F)F" has measured reversed-phase LC retention time not below 10 min. Thanks!
Resp: Condition met

Req: Decide: is the reported value of reversed-phase LC retention time for N#Cc1nn(-c2c(Cl)cc(C(F)(F)F)cc2Cl)c(N)c1SC(F)(F)F [Fipronil sulfide] equal to or greater than 10 min?
Resp: Condition met

###

experiment: reversed-phase LC retention time (C18, 15 min MeOH gradient); higher = more hydrophobic / later elution; details: ionization mode: ESI+; ion species: [M+H]+
METRIC: reversed-phase LC retention time (min)
Respond numerically; units are min and should not be typed.

// known answers, use as guide
CC(C)(c1ccc(OCC(O)CCl)cc1)c1ccc(OCC(O)CCl)cc1 (centres undefined) [Bisphenol A bis(3-chloro-2-hydroxypropyl) ether]; 14.2
N#Cc1ccc(C/C(=N\NC(=O)Nc2ccc(OC(F)(F)F)cc2)c2cccc(C(F)(F)F)c2)cc1; 16.8
CC(C)(c1ccccc1)c1cc(-n2nc3ccccc3n2)c(O)c(C(C)(C)c2ccccc2)c1; 19.7

Req: Look up and report measured reversed-phase LC retention time for this entry: "Cc1ccc2[nH]nnc2c1"
Resp: 9.87

###

Collected reversed-phase LC retention time values appear next to each entry.
experiment: reversed-phase LC retention time (C18, 15 min MeOH gradient); higher = more hydrophobic / later elution; conditions: ionization mode: ESI-; ion species: [M-H]-
Provide the reading as a plain figure in min.

Illustrative cases are given below, each with its answer.
CCOC(=O)C1=C(C)NC(C)=C(C(=O)OC)C1c1cccc([N+](=O)[O-])c1 (centres undefined) [Nitrendipin]; 14.7
CCC(=NOC/C=C/Cl)C1=C(O)CC(C2CCOCC2)CC1=O (centres undefined) [Tepraloxydim (two peaks)]; 9.17
CCCC(C)C1(CC)C(=O)NC(=O)NC1=O (centres undefined) [Pentobarbital]; 12.2

Now look at this entry.
Req: Using the record for O=S(=O)(O)C(F)(F)C(F)(F)C(F)(F)C(F)(F)C(F)(F)C(F)(F)C(F)(F)F [Perfluoroheptanesulfonic acid] , state its measured reversed-phase LC retention time.
Resp: 14.7

###

assay: collision cross section (TIMS, N2 drift gas) of the primary ion; higher = larger gas-phase ion size; conditions: ionization mode: ESI-; ion species: [M-H]-
METRIC: collision cross section (Å²)
Please state the figure in Å²; there is no need to write the unit.

Req: In one line, give reported collision cross section of the entry CC(C)N1C(=O)c2cc(O)ccc2NS1(=O)=O [6-Hydroxybentazone] .
Resp: 149.95

Req: Tell us which collision cross section value is on record for N#Cc1nn(-c2c(Cl)cc(C(F)(F)F)cc2Cl)c(N)c1S(=O)(=O)C(F)(F)F [Fipronil sulfone]
Resp: 178.27

Req: Find the measured collision cross section of CC1=CC(=O)NS(=O)(=O)O1 [Acesulfame] and report it.
Resp: 122.01

###

assay: collision cross section (TIMS, N2 drift gas) of the primary ion; higher = larger gas-phase ion size; settings: ionization mode: ESI-; ion species: [M-H]-
METRIC: collision cross section (Å²)
Report only the number, with the unit Å² understood.

Answered cases to consult:
N#Cc1cc(Br)c(O)c(Br)c1 [3,5-Dibromo-4-hydroxybenzonitrile]; 129.33
O=c1cc(-c2ccc(O)cc2)oc2cc(O[C@@H]3O[C@H](CO)[C@@H](O)[C@H](O)[C@H]3O[C@@H]3OC[C@](O)(CO)[C@H]3O)cc(O)c12 [Apiin]; 224.84
O=C1CN(/N=C/c2ccc([N+](=O)[O-])o2)C(=O)N1 [Nitrofurantoin]; 149.37

Req: Provide measured collision cross section value, entry: O=[N+]([O-])/N=C1\NCCN1Cc1ccc(Cl)nc1 [Imidacloprid]
Resp: 157.08

Req: State its collision cross section: CC(Cc1ccc(C(C)(C)C(=O)O)cc1)CN1CC(C)OC(C)C1 (stereo not given) [Fenpropimorph acid]
Resp: 188.8

Req: Consider the compound O=[N+]([O-])c1ccc(O)c([N+](=O)[O-])c1 [2,4-Dinitrophenol] . State its measured collision cross section.
Resp: 125.27

Req: Using the record for O=C(O)c1ccccc1Nc1cccc(C(F)(F)F)c1 [Flufenamic acid] , state its measured collision cross section.
Resp: 159.1

Req: Entry CC(C)NCC(O)c1ccc(NS(C)(=O)=O)cc1 (stereo not given) [Sotalol] needs its collision cross section filled in; supply it.
Resp: 170.22

Req: Find the measured collision cross section of CC/C(=C(/CC)c1ccc(O)cc1)c1ccc(O)cc1 [Diethylstilbestrol] and report it.
Resp: 175.03
